Reference source: ChEMBL document CHEMBL1201862

Each entry below carries its recorded GI50.
system: A549; experiment: NCI tumour cell line growth inhibition, 48 h
Active and inactive are the calls of the source. Cut-off read from the data, not from the text of the source: active = GI50 up to about 1.1 µM and inactive = higher.

The following molecules have reported results that may help.
{"columns": ["molecule", "GI50"],
 "data": [
  ["O=C(NN=C1CCCCC1)Nc1ccccc1Cl", "81.7 µM (inactive)"],
  ["O=C1C(C(O)(C(F)(F)F)C(F)(F)F)CCC1C(O)(C(F)(F)F)C(F)(F)F (configuration not stated)", "1.91 µM (inactive)"],
  ["CCOC(=O)C(N)CSC(=O)NC (configuration not stated)", "327 µM (inactive)"],
  ["Sc1nnc(/C=C/c2ccc(Cl)c(Cl)c2)[nH]1", "> 100 µM (inactive)"],
  ["CCOP(=O)(OCC)/C(C#N)=C/c1c[nH]c2ccccc12", "> 100 µM (inactive)"]
]}

Asked: Find the recorded GI50 belonging to CC12OOC(c3ccccc31)c1c2ccc2ccccc12 (configuration not stated) and report it.
Given back: 3.73 µM (inactive)

Asked: Find the recorded GI50 belonging to COC(=O)C1=C(O)c2cc(OC)c(OC)cc2C(c2ccc(OC)c(OC)c2)C1 (configuration not stated) and report it.
Given back: > 100 µM (inactive)
